- assayedSystem: KRAS-G12D protein (Homo sapiens, UniProt P01116, G12D)
- Construct: host or cells: Aspc-1 cells
- Sequence (P01116 1-188 isoform P01116-2 G12D): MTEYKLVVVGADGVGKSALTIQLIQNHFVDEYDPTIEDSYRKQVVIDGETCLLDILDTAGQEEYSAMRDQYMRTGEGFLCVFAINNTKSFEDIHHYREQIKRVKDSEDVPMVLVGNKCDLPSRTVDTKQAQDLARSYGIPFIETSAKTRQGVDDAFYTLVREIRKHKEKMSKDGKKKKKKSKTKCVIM
- testName: KRAS-G12D protein degradation study in Aspc-1 cells (western blot)
- Type: cell-based
- measurementContext: ASPC1, 24 h, Aspc-1 cells treated with 50 nM compound, 24 hours; read-out: Rate of degradation (KRAS^G12D)
readoutName: inhibition at 0.05 µM

1) C#Cc1c(F)ccc2cc(O)cc(-c3ncc4c(N5CC6CCC(C5)N6)nc(OCC5(CN6CCC7(CC6)CC(N6CCC(c8cccc9c8C(=O)N(C8CCC(=O)NC8=O)C9=O)CC6)C7)CC5)nc4c3F)c12 (stereo not shown) :: ≤ 10%
2) C#Cc1c(F)ccc2cc(O)cc(-c3ncc4c(N5CC6CCC(C5)N6)nc(OCC5(CN6CCC(CN7CCC(c8ccc9c(C%10CCC(=O)NC%10=O)nn(C)c9c8)CC7)CC6)CC5)nc4c3F)c12 (stereo not shown) :: > 60%
3) CCc1c(F)ccc2cc(O)cc(-c3ncc4c(N5CC6CCC(C5)N6)nc(OCC5(CN6CCC(C(=O)N7CCC8(CC7)CC(N7CCC(c9ccc%10c(C%11CCC(=O)NC%11=O)nn(C)c%10c9)CC7)C8)CC6)CC5)nc4c3F)c12 (stereo not shown) :: 31 to 60%
4) C#Cc1c(F)ccc2cc(O)cc(-c3ncc4c(N5CC6CCC(C5)N6)nc(OCC5(CN6CCC(CC(=O)N7CCC(c8ccc9c(C%10CCC(=O)NC%10=O)nn(C)c9c8)CC7)CC6)CC5)nc4c3F)c12 (stereo not shown) :: 31 to 60%
5) C#Cc1c(F)ccc2cc(O)cc(-c3ncc4c(N5CC6CCC(C5)N6)nc(OCC5(CN(C)C(=O)CC(C)(C)CC(=O)N6CCC(c7ccc8c(C9CCC(=O)NC9=O)nn(C)c8c7)CC6)CC5)nc4c3F)c12 (stereo not shown) :: ≤ 10%
6) C#Cc1c(F)ccc2cc(O)cc(-c3ncc4c(N5CC6CCC(C5)N6)nc(OCC5(CN6CCN(c7ccc(NC8CCC(=O)NC8=O)cc7F)CC6)CC5)nc4c3F)c12 (stereo not shown) :: 11 to 30%
7) C#Cc1c(F)ccc2cc(O)cc(-c3ncc4c(N5CC6CCC(C5)N6)nc(OCC5(CN6CCC(CNc7cccc8c(C9CCC(=O)NC9=O)nn(C)c78)CC6)CC5)nc4c3F)c12 (stereo not shown) :: 31 to 60%
8) C#Cc1c(F)ccc2cc(O)cc(-c3ncc4c(N5CC6CCC(C5)N6)nc(OCC5(CN6CCN(C(=O)CN7CCN(c8ccc(C(=O)NC9CCC(=O)NC9=O)nc8)CC7)CC6)CC5)nc4c3F)c12 (stereo not shown) :: ≤ 10%
9) C#Cc1c(F)ccc2cc(O)cc(-c3ncc4c(N5CC6CCC(C5)N6)nc(OCC5(CN6CCC(N7CCN(c8ccc(NC9CCC(=O)NC9=O)cc8F)CC7)CC6)CC5)nc4c3F)c12 (stereo not shown) :: 31 to 60%
10) C#Cc1c(F)ccc2cc(O)cc(-c3ncc4c(N5CC6CCC(C5)N6)nc(OCC5(CN6CCC7(CC6)CC(N6CCN(c8cccc9c8C(=O)N(C8CCC(=O)NC8=O)C9=O)CC6)C7)CC5)nc4c3F)c12 (stereo not shown) :: 31 to 60%
11) C#Cc1c(F)ccc2cc(O)cc(-c3ncc4c(N5CC6CCC(C5)N6)nc(OCC5(CN6CCC7(CC6)CC(Nc6ccc8c(C9CCC(=O)NC9=O)nn(C)c8c6)C7)CC5)nc4c3F)c12 (stereo not shown) :: > 60%
12) C#Cc1c(F)ccc2cc(O)cc(-c3ncc4c(N5CC6CCC(C5)N6)nc(OCC5(CN6CCC7(CC6)CC(N6CC=C(c8cccc9c8n(C)c(=O)n9C8CCC(=O)NC8=O)CC6)C7)CC5)nc4c3F)c12 (stereo not shown) :: 31 to 60%
13) C#Cc1c(F)ccc2cc(O)cc(-c3ncc4c(N5CC6CCC(C5)N6)nc(OCC5(CN6CC(CN7CCN(c8ccc(C(=O)NC9CCC(=O)NC9=O)nc8)CC7)C6)CC5)nc4c3F)c12 (stereo not shown) :: 11 to 30%
14) C#Cc1c(F)ccc2cc(O)cc(-c3ncc4c(N5CC6CCC(C5)N6)nc(OCC5(CN6CCC7(CC6)CC(N6CCC(c8ccc9c(c8)C(=O)N(C8CCC(=O)NC8=O)C9=O)CC6)C7)CC5)nc4c3F)c12 (stereo not shown) :: 31 to 60%
15) C#Cc1c(F)ccc2cc(O)cc(-c3ncc4c(N5CC6CCC(C5)N6)nc(OCC5(CN6CCC(CN7CCC(c8ccc9c(c8)CN(C8CCC(=O)NC8=O)C9=O)CC7)CC6)CC5)nc4c3F)c12 (stereo not shown) :: > 60%
16) C#Cc1c(F)ccc2cc(O)cc(-c3ncc4c(N5CC6CCC(C5)N6)nc(OCC5(CN6CCC7(CC6)CC(N6CCC(c8cccc(C9CCC(=O)NC9=O)c8)CC6)C7)CC5)nc4c3F)c12 (stereo not shown) :: ≤ 10%
17) C#Cc1c(F)ccc2cc(O)cc(-c3ncc4c(N5CC6CCC(C5)N6)nc(OCC5(CN6CCC7(CC6)CC(N6CCC(c8ccc9c(c8)n(C)c(=O)n9C8CCC(=O)NC8=O)CC6)C7)CC5)nc4c3F)c12 (stereo not shown) :: > 60%
18) C#Cc1c(F)ccc2cc(O)cc(-c3ncc4c(N5CC6CCC(C5)N6)nc(OCC5(CN6CCC7(CC6)CCN(c6ccc8c(c6)C(=O)N(C6CCC(=O)NC6=O)C8=O)CC7)CC5)nc4c3F)c12 (stereo not shown) :: > 60%
19) C#Cc1c(F)ccc2cc(O)cc(-c3ncc4c(N5CC6CCC(C5)N6)nc(OCC5(CN6CCC7(CC6)CC(N6CCC(c8ccc(C9CCC(=O)NC9=O)cc8)CC6)C7)CC5)nc4c3F)c12 (stereo not shown) :: > 60%
